Exercise: state measured pIC50 for each of the compounds provided.
target of assay: Fatty-acid amide hydrolase 1 (Rattus norvegicus)
Sequence (P97612 whole entry): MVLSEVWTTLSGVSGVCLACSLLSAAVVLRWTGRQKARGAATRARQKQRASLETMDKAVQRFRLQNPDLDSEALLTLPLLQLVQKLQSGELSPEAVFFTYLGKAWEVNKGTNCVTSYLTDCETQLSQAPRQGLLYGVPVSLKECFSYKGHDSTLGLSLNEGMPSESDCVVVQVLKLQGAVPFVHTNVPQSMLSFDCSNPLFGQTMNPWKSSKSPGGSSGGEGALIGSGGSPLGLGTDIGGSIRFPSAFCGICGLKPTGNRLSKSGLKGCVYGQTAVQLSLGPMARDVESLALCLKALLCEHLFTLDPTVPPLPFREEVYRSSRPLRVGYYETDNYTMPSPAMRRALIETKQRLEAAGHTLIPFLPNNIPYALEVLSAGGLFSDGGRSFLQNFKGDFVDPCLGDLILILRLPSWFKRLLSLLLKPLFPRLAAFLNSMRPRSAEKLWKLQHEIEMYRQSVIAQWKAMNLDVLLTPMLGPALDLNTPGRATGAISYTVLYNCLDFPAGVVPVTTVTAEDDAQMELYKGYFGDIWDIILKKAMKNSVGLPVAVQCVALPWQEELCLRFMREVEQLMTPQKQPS
The scale used: pIC50 is minus the common logarithm of the concentration in molar units.

// returns reported pIC50 for input "O=C(NCCCCCCn1ccc2ccccc21)Oc1cccnc1"
8.28

// returns reported pIC50 for input "O=C(NCCCCCCn1ccc2ccccc21)Oc1ccccc1"
6.60

// returns reported pIC50 for input "O=C(NCCCCn1ccc2ccccc21)Oc1ccccc1"
6.02

// returns reported pIC50 for input "Cc1nc(-c2ccccc2)c(-c2ccccc2)n1CCCCCCNC(=O)Oc1ccccc1"
6.46

// returns reported pIC50 for input "O=C(NCCCCCCn1cc(-c2ccccc2)c2ccccc21)Oc1ccccc1"
5.31
